Test system: OVCAR-4
Experiment: NCI tumour cell line growth inhibition, 48 h
Calls of active or inactive are those of the source. No stated cut-off is given here; in the data, active = GI50 up to about 1.1 µM and inactive = higher.
ENDPOINT_NAME: GI50

CC[C@@]1(O)C[C@H](OC2CC(N(C)C)C(O)C(C)O2)c2c(cc3c(c2O)C(=O)c2c(O)ccc(O)c2C3=O)[C@H]1C(=O)OC (some centres undefined) | 0.029 µM (active)
Nc1cc(N2CCCC2)nc(=O)n1Cc1ccccc1 | > 100 µM (inactive)
CC(C)Oc1c(N(Cc2ccccc2)c2ccccc2C2SCCCS2)c(=O)c1=O | 9.04 µM (inactive)

Next, consider the following compound.
What value of GI50 has been recorded for this entry: CC(C)[C@H](C)/C=C/[C@@H](C)C1CC[C@H]2[C@@]34C=C[C@]5(C[C@@H](O)CC[C@]5(C)[C@H]3CC[C@]12C)OO4 (some centres undefined)
40.1 µM (inactive)

====

System: U-251
Test: NCI tumour cell line growth inhibition, 48 h
Calls of active or inactive are those of the source. Rule as the data show it: active = GI50 up to about 1.1 µM and inactive = higher.
Reply using exactly one outcome from active, inactive

O=C(OCc1ccccc1C1CSCSC1)c1cc(C(=O)OCc2ccccc2C2CSCSC2)c(C(=O)OCc2ccccc2C2CSCSC2)cc1C(=O)OCc1ccccc1C1CSCSC1 | inactive
CCN1C[C@]2(C)CC[C@H](O)C34C1C(C[C@@H]32)[C@@]1(O)CC[C@H]2C[C@@H]4[C@@H]1[C@H]2O | inactive

In this assay, the call recorded for COc1cccc([C@H]2CC(=O)c3cc4c(cc3N2)OCO4)c1 was what?
active

In this assay, the call recorded for COc1cc(Br)c(/C=N\c2cccc3ccc(OS(=O)(=O)c4ccc([N+](=O)[O-])cc4)cc23)cc1OC was what?
inactive

In this assay, the call recorded for CCOP(=O)(CC(=O)C1CC1)OCC was what?
inactive

In this assay, the call recorded for CCOc1ccc2c(c1)c(CC(=O)O)cn2C was what?
inactive

In this assay, the call recorded for CC1=NN(c2ccccc2)C(=O)/C1=C1\SC(c2ccccc2)(c2ccccc2)c2ccccc21 was what?
inactive

In this assay, the call recorded for Cc1ccc2c(c1)C(=O)C1(C2)Cc2c(C)cccc2C1=O (stereo not drawn) was what?
inactive

====

# GI50 per entry
Test system: SR
Assay: NCI tumour cell line growth inhibition, 48 h
Activity calls are given as the source filed them. No stated cut-off is given here; in the data, active = GI50 up to about 1.1 µM and inactive = higher.

CC(C)(Cc1ccccc1)Cc1cc(O)ccc1O | 4.63 µM (inactive)
Cc1cccc(C(O)c2ccccn2)c1O (stereo unspecified) | > 100 µM (inactive)
N#Cc1ccc(-c2nc3cc(Cl)ccc3[nH]2)cc1 | 80 µM (inactive)
O=C(O)c1cccc(SSc2cccc(C(=O)O)c2)c1 | > 100 µM (inactive)
Cc1ccc(S(=O)(=O)N/N=C2/CCCOC2)cc1 | > 100 µM (inactive)

Next, consider the following compound.
What value of GI50 has been recorded for this entry: Cn1c2ccccc2n2c(=O)c(-c3ccc(Cl)cc3)nnc12
> 100 µM (inactive)

====

# GI50 per entry
Test system: SW-620
Test: NCI tumour cell line growth inhibition, 48 h
Activity calls are given as the source filed them. No stated cut-off is given here; in the data, active = GI50 up to about 1.1 µM and inactive = higher.

CC1=NN(c2ccccc2)C(=O)/C1=C1\SC(c2ccccc2)(c2ccccc2)c2ccccc21 | > 100 µM (inactive)

GET /values?readout=GI50&system=SW-620&item= Nc1ncnc2c1ccn2CC=C(CO)CO
> 100 µM (inactive)

GET /values?readout=GI50&system=SW-620&item= COP(=N[Si](C)(C)C)(OC)OC
> 100 µM (inactive)

GET /values?readout=GI50&system=SW-620&item= O=C(N/C=C1\C(=O)Oc2ccccc2C1=O)NC1CCCCC1
98.4 µM (inactive)

GET /values?readout=GI50&system=SW-620&item= O=C1/C(=C\c2cccc(Oc3ccccc3)c2)SC(c2ccccc2)N1Cc1ccccc1 (stereo not given)
38.3 µM (inactive)

====

System: SW-620
Assay: NCI tumour cell line growth inhibition, 48 h
The source made the active and inactive calls. Cut-off read from the data, not from the text of the source: active = GI50 up to about 1.1 µM and inactive = higher.
ENDPOINT_NAME: GI50

CC(C)=NN/C(=N\c1ccc(Cl)cc1)NS(=O)(=O)c1cc(Cl)c(Oc2ccc([N+](=O)[O-])cc2Cl)c(Cl)c1 | > 100 µM (inactive)

What value of GI50 has been recorded for this entry: COC1=CC(=O)N(C(=O)C2CSC(C(CO)NC(=O)c3csc(/C=N/O)n3)=N2)C1 (stereo not given)
> 100 µM (inactive)

What value of GI50 has been recorded for this entry: CCOC(=O)[C@@H]1ON2OC(OC3CCCC3(c3ccccc3)c3ccccc3)C(OC(C)=O)[C@H]3OC(=O)[C@@H]1C32 (stereo not given in full)
> 100 µM (inactive)

What value of GI50 has been recorded for this entry: CCOc1cc(-c2nc3cc(F)ccc3s2)ccc1O
19.4 µM (inactive)

What value of GI50 has been recorded for this entry: Cc1cn(C2CCN(CC3COC(C)(C)O3)O2)c(=O)[nH]c1=O (stereo not given)
> 100 µM (inactive)
